Every entry's value here was drawn from patent US20090247752A1.

Experiment: Solubility test of Gatifloxacin (Test Example 1)
Assay type: physicochemical
Settings: saturated solution containing boric acid 0.5 w/v %, pH 6.5, aqueous buffer, thermodynamic from solid, boric acid 0.5 w/v %; pH 6.5; stirred 3 hours at room temperature; in terms of 3/2 hydrate
measuredMetric: solubility thermodynamic at 3 h

| compound | result |
| --- | --- |
| COc1c(N2CCNC(C)C2)c(F)cc2c(=O)c(C(=O)O)cn(C3CC3)c12 (racemic) [Gatifloxacin] | 5800 µg/mL |
